# Tested on: Staphylococcus aureus
# Experiment summary: Antibacterial activity against Staphylococcus aureus at 200 ug/disk after 24 hrs by disk diffusion method
# Type: functional
# Experimental parameters: read-out: IZ
Here the recorded zone of inhibition at 200 µg/disc is given for each entry.
# number only, unit mm dropped from output

{"Molecule smiles": "O=C(N[C@H](CO)[C@H](O)c1ccc([N+](=O)[O-])cc1)C(Cl)Cl", "Recorded measurement": 41}
{"Molecule smiles": "O=S(=O)(/C=C/S(=O)(=O)c1ccc(Cl)cc1)CC1=NCCO1", "Recorded measurement": 15}
{"Molecule smiles": "O=S(=O)(/C=C/S(=O)(=O)c1ccc(Cl)cc1)CC1=NCCS1", "Recorded measurement": 28}
{"Molecule smiles": "O=S(=O)(CC1=NCCO1)c1c[nH]cc1S(=O)(=O)c1ccc(Cl)cc1", "Recorded measurement": 19}
{"Molecule smiles": "O=S(=O)(CC1=NCCS1)c1c[nH]cc1S(=O)(=O)c1ccccc1", "Recorded measurement": 30}

(Q) Look up and report measured zone of inhibition at 200 µg/disc for this entry: O=S(=O)(/C=C/S(=O)(=O)c1ccccc1)CC1=NCCO1
(A) 13

(Q) Please give the documented zone of inhibition at 200 µg/disc of O=S(=O)(CC1=NCCS1)c1c[nH]cc1S(=O)(=O)c1ccc(Cl)cc1
(A) 34

(Q) Answer with reported zone of inhibition at 200 µg/disc of Cc1ccc(S(=O)(=O)/C=C/S(=O)(=O)CC2=NCCO2)cc1
(A) 13

(Q) Find the measured zone of inhibition at 200 µg/disc of Cc1ccc(S(=O)(=O)c2c[nH]cc2S(=O)(=O)CC2=NCCS2)cc1 and report it.
(A) 26

(Q) Identify measured zone of inhibition at 200 µg/disc corresponding to O=S(=O)(/C=C/S(=O)(=O)c1ccccc1)CC1=NCCS1
(A) 24

(Q) Quickly give me recorded zone of inhibition at 200 µg/disc for Cc1ccc(S(=O)(=O)/C=C/S(=O)(=O)CC2=NCCS2)cc1
(A) 23

* * *

Each item that follows carries a reported zone of inhibition at 100 µg/disc.
# Tested on: Curvularia lunata
# Experiment summary: Antifungal activity against Curvularia lunata at 100 ug/disk after 48 hrs by disk diffusion method
# Assay type: functional
# Experimental parameters: read-out: IZ
Write the numeric value and append its unit.

Previously resolved entries follow.
{"Compound": "CC(=O)N1CCN(c2ccc(OCC3COC(Cn4ccnc4)(c4ccc(Cl)cc4Cl)O3)cc2)CC1 (centres undefined) [KETOCONAZOLE]", "zone of inhibition at 100 µg/disc": "41 mm"}
{"Compound": "O=S(=O)(/C=C/S(=O)(=O)c1ccccc1)CC1=NCCO1", "zone of inhibition at 100 µg/disc": "16 mm"}
{"Compound": "O=S(=O)(/C=C/S(=O)(=O)c1ccccc1)CC1=NCCS1", "zone of inhibition at 100 µg/disc": "24 mm"}

Now, please, on to the next compound.
(Q) Output measured zone of inhibition at 100 µg/disc for this item: O=S(=O)(CC1=NCCS1)c1c[nH]cc1S(=O)(=O)c1ccc(Cl)cc1
(A) 36 mm
